Just for reference, paper PMC2233693 is where these values come from.

TARGET UNDER TEST: wild-type bovine olfactory CNG channel (α3 subunit) (Bos taurus, UniProt Q03041)
Type: biochemical
RUN CONDITIONS: read-out: K 1/2, cGMP, +80 mV
METRIC NAME: pEC50
Note on units: pEC50 is unitless, being -log10 of a concentration expressed in mol/L.

Give wild-type bovine olfactory CNG channel (α3 subunit) (Bos taurus, UniProt Q03041) pEC50 for "Nc1nc2c(ncn2[C@@H]2O[C@@H]3COP(=O)(O)O[C@H]3[C@H]2O)c(=O)[nH]1"
5.59

----------
TARGET UNDER TEST: wild-type bovine olfactory CNG channel (α3 subunit) (Bos taurus, UniProt Q03041)
Sequence (Q03041 1-663): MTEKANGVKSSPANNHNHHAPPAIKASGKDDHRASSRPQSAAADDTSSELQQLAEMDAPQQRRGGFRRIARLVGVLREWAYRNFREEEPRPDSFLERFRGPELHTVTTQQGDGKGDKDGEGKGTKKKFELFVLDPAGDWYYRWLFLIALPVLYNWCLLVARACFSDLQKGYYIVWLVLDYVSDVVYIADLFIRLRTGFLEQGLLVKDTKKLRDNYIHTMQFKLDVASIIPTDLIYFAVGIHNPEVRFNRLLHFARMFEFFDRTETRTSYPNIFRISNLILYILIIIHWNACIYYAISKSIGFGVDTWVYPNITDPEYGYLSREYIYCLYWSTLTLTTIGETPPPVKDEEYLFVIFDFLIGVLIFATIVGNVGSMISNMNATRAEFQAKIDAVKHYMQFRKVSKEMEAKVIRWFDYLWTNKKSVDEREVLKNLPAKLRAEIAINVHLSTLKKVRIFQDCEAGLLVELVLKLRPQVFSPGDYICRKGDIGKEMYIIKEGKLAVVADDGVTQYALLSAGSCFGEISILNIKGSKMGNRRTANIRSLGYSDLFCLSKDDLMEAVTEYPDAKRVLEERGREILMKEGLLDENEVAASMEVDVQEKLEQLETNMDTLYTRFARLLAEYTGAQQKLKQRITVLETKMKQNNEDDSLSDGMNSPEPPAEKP
Format: biochemical
RUN CONDITIONS: read-out: K 1/2,cG, −80 mV, single patch, Fig. 1 fit
METRIC NAME: pEC50
Keep it numeric: pEC50 is minus log10 of the concentration in mol/L.

Reported pEC50 for "Nc1nc2c(ncn2[C@@H]2O[C@@H]3COP(=O)(O)O[C@H]3[C@H]2O)c(=O)[nH]1" : what is it?
5.49
